Reference source for all entries: patent US4528027A

Exercise: state measured Approximate Solubility at Room Temperature, Grams of Compound per 100 Grams of Xylene for each of the molecules provided.
test: Approximate solubility in xylene at room temperature; type: physicochemical

INSERT INTO assay_data (molecule, result) VALUES
  ('CCN(SC(=O)OC)c1nc(NC(C)C)nc(SC)n1 [Compound 15]', '> 150 Grams of Compound per 100 Gram'),
  ('CCN(SC(=O)OC)c1nc(NC(C)C)nc(OC)n1 [Compound 14]', '> 150 Grams of Compound per 100 Gram');

Each of the following entries comes with a recorded value; kindly state Approximate Solubility at Room Temperature, Grams of Compound per 100 Grams of Xylene for each.
1. CCN(SC(=O)OC)c1nc(Cl)nc(NC(C)C)n1 [Compound 5]
2. CCN(SC(=O)OC)c1nc(Cl)nc(NC(C)(C)C#N)n1 [Compound 1]

1. > 150 Grams of Compound per 100 Gram
2. 26 Grams of Compound per 100 Gram
